Entries annotated with measured melting point
measure: melting point

[[record]]
compound_smiles = "COc1ccc(CCNC(=O)/C=C(\\C)c2c(-c3ccccc3)oc3ccc(Cl)cc23)cc1OC"
readout_value = "169.1 to 171.9 °C"

[[record]]
compound_smiles = "COc1ccc(CCNC(=O)/C=C(/C)c2c(C)oc3ccc(Br)cc23)cc1OC"
readout_value = "150.1 to 153.5 °C"

[[record]]
compound_smiles = "CCN(CC)C(=O)/C=C(/c1ccc(OC)cc1)c1cc2cc(Br)ccc2o1"
readout_value = "93.5 to 96 °C"

[[record]]
compound_smiles = "COc1ccc(CCNC(=O)/C=C(/C)c2c(C)oc3ccc(Cl)cc23)cc1OC"
readout_value = "150.9 to 151.5 °C"

[[record]]
compound_smiles = "COc1ccc(CCNC(=O)/C=C(\\C)c2c(C)oc3ccc(Cl)cc23)cc1OC"
readout_value = "73 to 76 °C"

[[record]]
compound_smiles = "COc1ccc(C(=CC(=O)NCCc2ccc(OC)c(OC)c2)c2cc3cc(Br)ccc3o2)cc1"
readout_value = "112.2 to 117 °C"

[[record]]
compound_smiles = "COc1cccc(NC(=O)/C=C(/c2ccc(Cl)cc2)c2cc3cc(Br)ccc3o2)c1"
readout_value = "160.1 to 162.2 °C"

[[record]]
compound_smiles = "COc1ccc(CCNC(=O)C=C(C)c2c(C)oc3ccc([N+](=O)[O-])cc23)cc1OC"
readout_value = "116.9 to 124.4 °C"

[[record]]
compound_smiles = "COc1ccc(CCNC(=O)/C=C/c2coc3ccccc23)cc1OC"
readout_value = "138.1 to 140.3 °C"

[[record]]
compound_smiles = "COc1cccc(NC(=O)/C=C(\\C)c2c(C)oc3ccc(Cl)cc23)c1"
readout_value = "139 to 142 °C"

[[record]]
compound_smiles = "CCN(CC)C(=O)/C=C(\\C)c1c(C)oc2ccc([N+](=O)[O-])cc12"
readout_value = "130 to 134 °C"

[[record]]
compound_smiles = "O=C(/C=C(/c1ccc(Cl)cc1)c1cc2cc(Br)ccc2o1)N1CCOCC1"
readout_value = "150 to 153.5 °C"

[[record]]
compound_smiles = "COc1ccc(CCNC(=O)/C=C(\\C)c2c(C)oc3ccc(Br)cc23)cc1OC"
readout_value = "143.1 to 150 °C"

[[record]]
compound_smiles = "CCN(CC)C(=O)/C=C(/c1ccc(Cl)cc1)c1cc2cc(Br)ccc2o1"
readout_value = "106.7 to 109.8 °C"

[[record]]
compound_smiles = "O=C(/C=C/c1coc2ccccc12)N1CCOCC1"
readout_value = "132.1 to 134.6 °C"

